- Tested on: SW-620 colon
- EXPERIMENT: NCI-60 one-dose screen, 48 h (100 = growth as untreated, 0 = no growth, -100 = all killed)
- TEST PARAMETERS: 10 µM unless noted
About 83,000 compounds went through this panel and 20% of them were active in at least one assay; those are over-represented in the sample as a whole.
QUANTITY KIND: growth (%)
Return type: number; implicit unit %.

| COMPOUND | UNIT OF MEASURE | DATA VALUE |
| --- | --- | --- |
| O=C(Nc1ccc(Br)cc1)Nc1ccccc1Cl | % | 96.4 |
| O=C(/C=C/c1ccccc1)C(Br)C(Br)c1ccccc1 (stereo not given) | % | -53.1 |
| CC(=O)N[C@@H](CCC(N)=O)C(=O)O | % | 94.1 |
| Cc1cc(NC(=O)C2c3ccccc3C(=O)N(CC(C)C)C2c2cccs2)no1 (stereo not given) | % | -57 |
| O=C(/C=C/c1cn(-c2ccccc2)nc1-c1cccc(Nc2ccnc3cc(Cl)ccc23)c1)c1ccc2c(c1)OCO2 | % | 95.9 |

Input line: Give growth (SW-620 colon) of the following compound: COc1c(B(O)O)cccc1-c1nc2c(F)cc3n[nH]c(C)c3c2c2c1CCCC2
Output line: 15.3

Input line: Cool, now COc1ccc(-c2nsc3c2NC(=O)CC3c2cccc(F)c2)cc1 (stereo not given)
Output line: 18

Input line: C#CC[C@@H]1C[C@]2(C)[C@H]3CC=C4[C@H]5CC(C)(C)CC[C@]5(C(=O)NCCCCN)CC[C@@]4(C)[C@]3(C)CC[C@H]2C(C)(C)[C@H]1OC(C)=O ?
Output line: -23.9

Input line: Then this compound: COc1ccc2nc(NC(=O)/C(=C/c3cc(OC)c(OC)c(OC)c3)c3ccc(OC)c(OC)c3)sc2c1
Output line: 102

Input line: Moving on to COc1ccc(/C=C(/C(=O)N2CCN(c3ccccc3)CC2)c2cc(OC)c(OC)c(OC)c2)cc1O
Output line: 24.1

Input line: Can you check COc1ccc(C(=O)c2c(N)nc3n2CCCC3)cc1OC next?
Output line: 101

Input line: And the next one, O=C(CCCCCCc1nc2ccc(Br)cc2[nH]1)NO ?
Output line: -76.8

Input line: One more compound: Oc1[nH]c2ccccc2c1/C=c1/ccc2c(c1)N=C(c1ccc(C(F)(F)F)cc1)N=2
Output line: 63.7

Input line: Follow-up item: Cc1ccc2nc(CN(CCN(Cc3nc4ccc(C)cc4[nH]3)Cc3nc4ccc(C)cc4[nH]3)Cc3nc4ccc(C)cc4[nH]3)[nH]c2c1
Output line: -85.9

Input line: Follow-up item: CSC(=S)N/N=C(\C)c1ccccn1
Output line: 29.5

Input line: Next: COc1ccc(-c2oc(=O)ccc2-c2cc(OC)c(OC)c(OC)c2)cc1F
Output line: 46.4

Input line: Request: COc1cc2c(cc1C)NC(=O)/C2=C\c1c[nH]c2ccccc12
Output line: 101

Input line: # repeat for Nc1nc2ccc([C@@H]3Nc4ccc5[nH]ncc5c4[C@H]4[C@H]5CCC(C5)[C@H]43)cc2s1
Output line: -3.94

Input line: Now consider COCCn1c(Nc2ccc(C(=O)NO)cc2)nc2ccccc21 .
Output line: 29.6

* * *

- Tested on: SF-268 CNS
- EXPERIMENT: NCI-60 one-dose screen, 48 h (100 = growth as untreated, 0 = no growth, -100 = all killed)
- TEST PARAMETERS: 10 µM unless noted
The panel holds about 83,000 compounds, 20% with a hit somewhere; the sample as a whole holds those more often.
Hi! Just check whether growth is below 90%. Below gives Fulfilled, equal or above gives Not fulfilled.

| COMPOUND | CLASSIFICATION |
| --- | --- |
| COc1ccc(C2CC(c3ccc(Nc4ccnc5cc(Cl)ccc45)cc3)=NN2c2ccccc2)cc1 (centres undefined) | Not fulfilled |
| COc1cc(C(=O)/C=C/c2cn(-c3ccccc3)nc2-c2cccc(Nc3ccnc4cc(Cl)ccc34)c2)cc(OC)c1OC | Not fulfilled |
| O=C(NC1CC1)c1ccc(-c2nc3ccc4[nH]ncc4c3c3c2CCCC3)cc1 | Fulfilled |

Input line: Is growth of Cc1cc(Cl)c2ccc(N(C)C)cc2n1 strictly below 90%?
Output line: Not fulfilled

Input line: Next compound up: CN(C)CCOc1nc2c3cccnc3cc(-c3cccc(Cl)c3)c2c2ncccc12
Output line: Fulfilled

Input line: Same question for Fc1ccc2c(CN3CCO[C@H](COc4cccc(Cl)c4)C3)c[nH]c2c1 please.
Output line: Fulfilled

Input line: Consider next the compound O=C1C=CC(=O)N1c1cccc(N2C(=O)C=CC2=O)c1 in the same way.
Output line: Not fulfilled

Input line: Now consider COc1cc2nccc(Oc3ccc(NC(=O)C4(C(=O)Nc5c(F)cc(F)cc5F)CC4)cc3)c2cc1Oc1ccc(N)cn1 .
Output line: Fulfilled

* * *

- System: OVCAR-5 ovarian
- EXPERIMENT: NCI-60 one-dose screen, 48 h (100 = growth as untreated, 0 = no growth, -100 = all killed)
- TEST PARAMETERS: 10 µM unless noted
The panel holds about 83,000 compounds, 20% with a hit somewhere; the sample as a whole holds those more often.
QUANTITY KIND: growth (%)
Use % as the unit, but write only the number.

Known results for molecules:
| MOLECULE | TARGET OR SYSTEM | DATA VALUE |
| --- | --- | --- |
| COC(=O)CNS(=O)(=O)c1ccc2c(c1)Cc1cc(S(=O)(=O)NCC(=O)OC)ccc1-2 | OVCAR-5 ovarian | 103 |
| ClCc1cccc(CSc2ncnc3c2ncn3Cc2cccc(CCl)c2)c1 | OVCAR-5 ovarian | 116 |
| CCCCN(CCCC)CCC(=O)c1ccc(OC)c2ccccc12 | OVCAR-5 ovarian | 102 |
| COc1cc2nccc(Oc3ccc(NC(=O)C4(C(=O)Nc5ccc(F)cc5)CC4)cc3)c2cc1OC(=O)c1ccc(N)cc1 | OVCAR-5 ovarian | 31 |
| COCCCNCC(=O)Nc1c(C)cccc1C | OVCAR-5 ovarian | 104 |

Input line: Look up growth: CCSc1ccc([C@@H]2[C@@H](N)C(=O)N2c2cc(OC)c(OC)c(OC)c2)cc1
Output line: 42.7

Input line: Query CCOc1cccc(/C=N/NC(=O)Cc2ccc(Nc3ccnc(C(F)(F)F)c3)cc2)c1O next
Output line: 19.6

Input line: Then this molecule: O=C(CI)NCCNc1cccc2c(S(=O)(=O)O)cccc12
Output line: 107

Input line: Now consider Cc1cccc(C(=O)O)n1 and answer again.
Output line: 100

Input line: Note, next up: O=C(Nc1ccc2ncnc(Nc3ccc(F)c(Cl)c3)c2c1)c1cccs1
Output line: 76.1

Input line: Note, next up: CC1(C)C(N(O)C(=O)Nc2ccc(Cl)cc2)N(c2ccc(Cl)cc2)C(=O)N1CC(=O)N/N=C/C=C/c1ccc([N+](=O)[O-])o1 (configuration not stated)
Output line: 6.4

Input line: And the next one, NS(=O)(=O)c1ccc(N2N=C(c3cccs3)CC2c2ccccc2O)cc1 (configuration not stated) ?
Output line: 9.55

Input line: Lookup c1ccc(C2=Nc3ccccc3SC2)cc1
Output line: 98.6

Input line: Next: Nc1nc2ccc([C@@H]3Nc4ccc5[nH]ncc5c4[C@H]4[C@H]5CCC(C5)[C@H]43)cc2s1
Output line: 21.3

Input line: Now try COc1cc(/C=C/c2ccc3c(Br)cc(Br)c(O)c3n2)ccc1O .
Output line: 63.2

Input line: And the next one, Clc1ccccc1Nc1nnc(-c2ccncc2)s1 ?
Output line: 107

Input line: Subsequent entry: CCc1ccc2c(c1)N(CCO)C1=C(C(=O)OC1)C2c1cccc(Cl)c1 (configuration not stated)
Output line: 30.3

Input line: Record: COC1CC(N)C2OC(c3ccccc3)OCC2O1 (configuration not stated)
Output line: 94.4

* * *

- System: T-47D breast
- EXPERIMENT: NCI-60 one-dose screen, 48 h (100 = growth as untreated, 0 = no growth, -100 = all killed)
- TEST PARAMETERS: 10 µM unless noted
Compounds without any hit were thinned out: in the full panel of roughly 83,000, 20% have a hit.
Could you please mark Satisfied for values of growth below 70% and Not satisfied for values at or above it?

| COMPOUND | CLASSIFICATION |
| --- | --- |
| CCCc1n(Cc2ccc3ccccc3c2)c2ccccc2[n+]1Cc1ccc2ccccc2c1 | Satisfied |
| CCCCc1n(Cc2ccc3ccccc3n2)cc[n+]1Cc1ccc2ccccc2n1 | Satisfied |

Input line: Please let me know if NNC(=O)Cc1ccccc1 shows growth below 70%.
Output line: Not satisfied

Input line: Let us now turn to COc1ccc(/C=C2\CCCC3=C2N=C2SC(C)=NN2C3c2ccc(OC)c(OC)c2)cc1OC (stereo unspecified)
Output line: Satisfied

Input line: Same question, CCCN(CCC)CC(O)COc1ccccc1C(=O)Nc1ccccc1 (stereo unspecified) this time
Output line: Not satisfied

Input line: Proceed to c1ccc(-c2[nH]c3ccccc3c2-c2ccccc2)cc1
Output line: Satisfied

Input line: What about this compound? Cc1ccc(NC(=O)c2nc(S(C)=O)oc2-c2ccc(F)cc2)cc1Nc1nccc(-c2cccnc2)n1 (stereo unspecified)
Output line: Satisfied

Input line: Query COc1ccc(NC(=O)C2c3ccccc3C(=O)N(CC(C)C)C2c2cccs2)cc1 (stereo unspecified) next
Output line: Not satisfied

Input line: Another compound to look at: Cc1ccc(S(=O)(=O)NC(CCC(=O)Nc2ccc(Cl)cc2)C(=O)Nc2ccc(Cl)cc2)cc1 (stereo unspecified)
Output line: Satisfied

Input line: Same lookup for Cc1cc(C)c2c(NC(=O)Nc3ccc(Cl)c(Cl)c3)n[nH]c2n1 , please.
Output line: Not satisfied
